tested on: 786-0 renal; test: NCI tumour cell line growth inhibition, 48 h; in the data active = GI50 below about 0.43 µM; inactive = the rest
Thanks in advance; please answer with one of these: active, inactive

Use the examples below as a reference point.
>  <compound>
N#C/C(=C/c1cccs1)c1cccs1

>  <qualitative.label>
inactive

$$$$
>  <compound>
CNC1=C(Br)C(=O)C2=C(C1=O)C1C3=C(C(=O)C=CC3=O)C2c2ccccc21 (stereo not given)

>  <qualitative.label>
inactive

$$$$
>  <compound>
COc1ncnc2c1ncn2C/C(Br)=C(\Br)CCl

>  <qualitative.label>
inactive

$$$$
>  <compound>
Cc1cc(C)c(S(=O)(=O)Oc2ccccc2[N+](=O)[O-])c(C)c1

>  <qualitative.label>
inactive

$$$$
>  <compound>
CN([N-]C(=O)CC(=O)[N-]N(C)C(=S)c1ccccc1)C(=S)c1ccccc1.[Cu+2]

>  <qualitative.label>
active

$$$$

What is the recorded call for this compound in the test? CC(C)(C)OC(=O)N(CCCn1c2c(c3ccccc3c1=O)C(=O)c1ccccc1-2)CCN(CCCn1c2c(c3ccccc3c1=O)C(=O)c1ccccc1-2)C(=O)OC(C)(C)C
inactive

Consider next the compound CC(=O)OC1CC(C)c2c1ncnc2N1CCN(C(=O)OC(C)(C)C)CC1 (stereo not given) in the same way.
inactive

And the next one, CCC(=O)[O-].CCC(=O)[O-].N.N.N.N.[Co+3].[O-][Cl+3]([O-])([O-])[O-] ?
inactive

Now give it for O=c1c2ccccc2c(C=NCCNCCO)c2oc3ccccc3n12 too.
inactive

Then this compound: CCCN(CCC)c1ccc(C=O)c(OC)c1
inactive
